experiment: protein stability index of a GFP-peptide fusion (yeast GPS) (PSI 1-4); higher = more stable; sorted into four equal gates, so the index is relative within each strain; conditions: san1∆
Measure name: protein stability index
Answer using only a numeral; do not append any unit.

Reported protein stability index ( DIVPYFLKHNGEEDAVD [RPN1] ) = 2.95

Reported protein stability index ( QIQLAESELSLLEETQA [SMC4] ) = 2.71

Reported protein stability index ( SSVEMLLDVVKGTEASN [YDL116W/NUP84] ) = 2.55

Reported protein stability index ( KQLQLAMHNSKAASSTR [POP1] ) = 1.54

Reported protein stability index ( PESQGQHEQQKQQEQLE [YMR153W/NUP53] ) = 3.24

Reported protein stability index ( LPLFYDLLNAASIESAD [IRR1] ) = 2.27

Reported protein stability index ( LQPVIPGGAASKSVPTP [SNF5] ) = 3.12

Reported protein stability index ( LVSDSEIIDLNLHSFTK [POP6] ) = 2.31

Reported protein stability index ( SPGSPAYSPKQDEQKHN [RPO21] ) = 3.2

Reported protein stability index ( DQNPIQVVVDAITNTGP [RPS5] ) = 2.76

Reported protein stability index ( PKNLLKKFIEISDVKIQ [PRP8] ) = 1.76

Reported protein stability index ( WLYVYETPNQDATYDSA [RPN6] ) = 2.67

Reported protein stability index ( IAFASNYGIVELDPECQ [RRP43] ) = 2.54

Reported protein stability index ( TDYFLPKNYSLHGLRSF [YJL039C/NUP192] ) = 2.12

Reported protein stability index ( GSTSLIEGMEQRIIKEL [ARP7] ) = 2.98

Reported protein stability index ( NMVSLRGRNDTLERVHL [GRR1] ) = 2.39

Reported protein stability index ( VLRLKPGRKYTTLGKLS [RPL16A] ) = 2.86

Reported protein stability index ( TGGQTIDNGTGRTGNGN [MED6] ) = 3.26

Reported protein stability index ( PFIKSESKPFSSDALSK [SIR4] ) = 3.2

Reported protein stability index ( QRKEIKDRISSCSSKEK [SMC4] ) = 2.49

Reported protein stability index ( SLKALASKYNCDKSVCR [RPL40A] ) = 3.12

Reported protein stability index ( GTTATGTGLFGQQTAQP [YGR119C/NUP57] ) = 3.02

Reported protein stability index ( YEKNFEATLESKLKEEE [ESC2] ) = 3.03

Reported protein stability index ( IAIIKDTSDIIVDPTAE [RRP46] ) = 1.71

Reported protein stability index ( MATNKIETLDPALIRPG [RPT2] ) = 2.96

Reported protein stability index ( GSCTRQLAGKSGEDTNV [YOR098C/NUP1] ) = 3.34

Reported protein stability index ( YGYPSYSTIRQLVYKRG [RPL7A] ) = 1.25

Reported protein stability index ( QKGITSYAVSPYAQKPL [QCR8] ) = 2.92

Reported protein stability index ( QEASQVTFIFGELKRGN [MED11] ) = 2.75

Reported protein stability index ( SLEDPQVRKKQIETINF [YDL116W/NUP84] ) = 2.19

Reported protein stability index ( YPLLIRMSYGSHDKKTK [SRP14] ) = 2.57

Reported protein stability index ( LQEAIDFAQKEINGDDD [PRE10] ) = 3.23

Reported protein stability index ( IEIMGILMGFTLKDNIV [RRI1] ) = 2.81

Reported protein stability index ( KSKLFEWKSEFVVPTFG [SNM1] ) = 2.6

Reported protein stability index ( KKKQQGAKQTQGGAMNK [SRP72] ) = 3.37

Reported protein stability index ( IVHHPYQSLKQIVQVLK [SSN8] ) = 1.18

Reported protein stability index ( STKTGTPSDLSESGSKL [POP1] ) = 3.24

Reported protein stability index ( KQTADWLAEKFQKETNM [PRP28] ) = 3.43

Reported protein stability index ( DFKNEESLSEEHASLLV [MED8] ) = 3.08

Reported protein stability index ( AARKAEKAKSAGVQGSK [RPL24B] ) = 3.18

Reported protein stability index ( TSVIQDLSEKILNDIET [BRR2] ) = 3.21

Reported protein stability index ( VEYVDPTVNRVPNYEVS [RPN7] ) = 2.92

Reported protein stability index ( KLSEIILNINNSTSKNT [SWI1] ) = 2.74

Reported protein stability index ( ADGLLQVLVCTATLAWG [BRR2] ) = 2.17
